B1: BCL2L13 (parent)
chain: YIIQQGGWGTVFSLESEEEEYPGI

# Variants of: B1
# assay.explanation: protein stability index of a GFP-peptide fusion (GPS, HEK-293T) (PSI 1-6); higher = more stable;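 note: lentivirally expressed fusions sorted by FACS into six bins by GFP to DsRed ratio, PSI derived from sequencing read proportions per bin multiplied by bin number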
# experimental.parameters: c terminus: a fixed tail appended
metric: protein stability index
Give your answer as a number; write no unit.

The cases that follow already have their protein stability index on record.
YWIQQGGWGTVFSLESEEEEYPGI : 2.38
YIIQQGGWGTVFSLESEEEEYPDI : 2.7
YIIQQGGWGTSFSLESEEEEYPGI : 2.61
YIIQQGGWGTVFSLESEEEEYPNI : 1.16
YIIQQGGPGTVFSLESEEEEYPGI : 2.97
YIIQQGGWITVFSLESEEEEYPGI : 3.4
YIIQQGGWGTVFSLESEEEESPGI : 1.14
YIIQQGGWGTVFSLESEEEEYLGI : 2.9

Consider now this further variant.
# get_value(readout='protein stability index', item= "YIIQQGGWGTVFSLETEEEEYPGI" )
2.25
